# TESTED_SYSTEM: Human immunodeficiency virus type 1 reverse transcriptase (Human immunodeficiency virus 1)
READOUT_NAME: pIC50
Remember, pIC50 is on a log scale: it is -log10 of the molar concentration.

Solved entries:
{"columns": ["MOL_SMILES", "TESTED_SYSTEM", "pIC50"],
 "data": [
  ["CCOc1ccc(F)c(CC/N=C(\\N)Nc2ccc(Br)cn2)c1Cl", "Human immunodeficiency virus type 1 reverse transcriptase (Human immunodeficiency virus 1)", 6.40],
  ["S=C(Nc1ccc(Br)cn1)N[C@@H]1C[C@@H]1c1ccccc1", "Human immunodeficiency virus type 1 reverse transcriptase (Human immunodeficiency virus 1)", 8.10],
  ["O=C(CCNC(=S)Nc1ccc(Br)cn1)c1ccccc1Cl", "Human immunodeficiency virus type 1 reverse transcriptase (Human immunodeficiency virus 1)", 8.00],
  ["N=C(Nc1ccc(Br)cn1)N[C@@H]1C[C@@H]1c1ccccc1", "Human immunodeficiency virus type 1 reverse transcriptase (Human immunodeficiency virus 1)", 6.74],
  ["COc1cccc(C(=O)CC/N=C(\\S)Nc2ccc(Br)cn2)c1", "Human immunodeficiency virus type 1 reverse transcriptase (Human immunodeficiency virus 1)", 7.10],
  ["O=C(CC/N=C(\\S)Nc1ccc(Br)cn1)c1ccc(F)cc1", "Human immunodeficiency virus type 1 reverse transcriptase (Human immunodeficiency virus 1)", 7.33],
  ["O=C(CC/N=C(\\S)Nc1ccc(Cl)cn1)c1c(F)cccc1F", "Human immunodeficiency virus type 1 reverse transcriptase (Human immunodeficiency virus 1)", 8.22],
  ["O=C(CC/N=C(\\S)Nc1ccc(Br)cn1)c1ccccc1F", "Human immunodeficiency virus type 1 reverse transcriptase (Human immunodeficiency virus 1)", 8.40],
  ["S=C(NCCc1ccccc1)Nc1ccc(Cl)cn1", "Human immunodeficiency virus type 1 reverse transcriptase (Human immunodeficiency virus 1)", 8.52],
  ["COc1ccccc1C(=O)CCNC(=S)Nc1ccc(Br)cn1", "Human immunodeficiency virus type 1 reverse transcriptase (Human immunodeficiency virus 1)", 8.52]
]}

Ask: I'd like to know its pIC50. The compound in question is O=C(NCCC(=O)c1ccccc1F)Nc1ccc(Br)cn1
Result: 7.27

Ask: Same question, O=C(CCNC(=S)Nc1ccc(Br)cn1)c1c(F)cccc1F this time
Result: 8.52

----------
# TESTED_SYSTEM: Human immunodeficiency virus type 1 reverse transcriptase (Human immunodeficiency virus 1, UniProt Q72547)
READOUT_NAME: IC50

Record excerpt, results attached:
{"columns": ["MOL_SMILES", "READOUT_NAME", "RESULT"],
 "data": [
  ["O=S(=O)(NCCc1ccccc1)Nc1cncc(Cl)c1", "IC50", "> 10 µM"],
  ["O=C(CC/N=C(\\S)Nc1ccc(Br)cn1)c1cc(F)ccc1F", "IC50", "< 0.025 µM"],
  ["N#CN/C(=N\\c1ccc(Cl)cn1)NCCc1ccccc1", "IC50", "> 10 µM"],
  ["COc1ccccc1CCN=C(NC#N)Nc1nccs1", "IC50", "> 10 µM"]
]}

Consider now this further compound.
Ask: Endpoint output: IC50 of O=C(CCNC(=S)Nc1ccc(Br)cn1)c1ccccc1 . Value?
Result: < 0.027 µM
